- test: Timed organ biodistribution of [^64Cu]Cu-DOTATATE by ex vivo gamma counting
- Type: in vivo, mice
- stated conditions: mouse, thoracic aorta, intravenous, 1.85 MBq, total radioactivity; female Apoe^-/- mice 12 weeks on Western Diet, 120 min after injection, median (IQR), N=3-8; read-out: Tissue radioactivity, thoracic aorta
property measured: tissue uptake at 2 h

Exercise: Output tissue uptake at 2 h of C[C@@H](O)[C@H](NC(=O)[C@@H]1CSSC[C@H](NC(=O)[C@@H](Cc2ccccc2)NC(=O)CN2CCN(CC(=O)O)CCN(CC(=O)O)CCN(CC(=O)O)CC2)C(=O)N[C@@H](Cc2ccc(O)cc2)C(=O)N[C@H](Cc2c[nH]c3ccccc23)C(=O)N[C@@H](CCCCN)C(=O)N[C@@H]([C@@H](C)O)C(=O)N1)C(=O)O [[^64Cu]Cu-DOTATATE, metal not drawn]
Key: 2.1 %ID/g

Hey, just so you know, these numbers are from paper PMC9007951.
